Target: GR (Homo sapiens, UniProt P04150)
Construct: expressed in transfected cells; host or cells: CHO-K1
Sequence (P04150 whole entry): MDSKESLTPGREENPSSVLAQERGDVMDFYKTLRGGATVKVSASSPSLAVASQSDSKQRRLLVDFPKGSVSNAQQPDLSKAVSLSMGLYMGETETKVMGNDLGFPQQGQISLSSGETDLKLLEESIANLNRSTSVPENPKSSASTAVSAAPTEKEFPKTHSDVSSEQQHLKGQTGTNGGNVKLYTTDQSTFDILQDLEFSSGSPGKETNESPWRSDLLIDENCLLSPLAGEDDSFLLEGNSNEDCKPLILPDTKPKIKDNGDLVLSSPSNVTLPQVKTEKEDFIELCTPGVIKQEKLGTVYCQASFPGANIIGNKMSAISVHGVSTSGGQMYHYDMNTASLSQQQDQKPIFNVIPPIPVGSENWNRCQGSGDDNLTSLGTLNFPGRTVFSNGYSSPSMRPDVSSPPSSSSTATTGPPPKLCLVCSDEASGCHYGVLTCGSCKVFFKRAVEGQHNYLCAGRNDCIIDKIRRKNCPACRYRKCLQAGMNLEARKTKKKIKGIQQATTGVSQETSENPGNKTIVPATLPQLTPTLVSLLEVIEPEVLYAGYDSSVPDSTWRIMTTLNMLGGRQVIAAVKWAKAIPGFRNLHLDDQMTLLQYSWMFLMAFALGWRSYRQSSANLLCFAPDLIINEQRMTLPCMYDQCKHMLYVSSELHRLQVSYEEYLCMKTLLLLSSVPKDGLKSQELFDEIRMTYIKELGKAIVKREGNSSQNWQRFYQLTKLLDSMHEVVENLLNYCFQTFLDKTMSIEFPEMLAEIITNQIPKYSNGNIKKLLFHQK
Experiment: In Vitro GR Luciferase Reporter Assay (antagonist mode, CHO-K1-GR-MMTV-Luc reporter cells)
Type: cell-based
Conditions: antagonist assay with 10 nM Dexamethasone, 18-24 hours
pIC50: −log10 of the molar value.
ASSAY METRIC: pIC50

// query State the recorded pIC50 for this entry: `Cn1cc(S(=O)(=O)[C@H]2CCC3=Cc4c(cnn4-c4ccc(F)cc4)C[C@]3(C(=O)c3cc(C(F)(F)F)ccn3)C2)cn1`
// result ≥ 7.00

// query Note, next up: `O=C(c1ccccn1)[C@]12Cc3cnn(-c4ccc(F)cc4)c3C=C1CC[C@H](S(=O)(=O)C1CCCC1)C2`
// result ≥ 7.00

// query Note, next up: `CN([C@H]1CCC2=Cc3c(cnn3-c3ccc(F)cc3)C[C@]2(C(=O)c2ccc(C(F)(F)F)cn2)C1)S(=O)(=O)c1cnn(C)n1`
// result 6.00 to 7.00

// query Note, next up: `CN([C@H]1CCC2=Cc3c(cnn3-c3ccc(F)cc3)C[C@]2(C(=O)c2cc(C(F)(F)F)ccn2)C1)S(=O)(=O)c1ccc(F)cc1`
// result ≥ 7.00

// query Note, next up: `COc1ccc(C(=O)[C@]23Cc4cnn(-c5ccc(F)cc5)c4C=C2CC[C@H](S(=O)(=O)c2ccccn2)C3)nc1`
// result ≥ 7.00

// query Note, next up: `O=C(c1ccccn1)[C@]12Cc3cnn(-c4ccc(F)cc4)c3C=C1CC[C@@H](S(=O)(=O)c1ccc(F)cc1)C2`
// result 6.00 to 7.00

###

Target: GR (Homo sapiens)
Construct: expressed in transfected cells; host or cells: CHO-K1
Test: In Vitro GR Luciferase Reporter Assay (antagonist mode, CHO-K1-GR-MMTV-Luc reporter cells)
Format: cell-based
Conditions: antagonist mode, 10 nM Dexamethasone
Kindly supply the reported IC50 values for the records listed here.

// query Form field: IC50 recorded for `Cn1cc(S(=O)(=O)N(CC(F)(F)F)[C@H]2CCC3=Cc4c(cnn4-c4ccc(F)cc4)C[C@]3(C(=O)c3cc(C(F)(F)F)ccn3)C2)nn1` with GR (Homo sapiens) (enter value)
// result ≤ 100 nM

// query Note, next up: `Cn1cc(S(=O)(=O)N(C2COC2)[C@H]2CCC3=Cc4c(cnn4-c4ccc(F)cc4)C[C@]3(C(=O)c3cc(C(F)(F)F)ccn3)C2)nn1`
// result ≤ 100 nM

// query Note, next up: `Cn1ccc(S(=O)(=O)N(CC(F)F)[C@H]2CCC3=Cc4c(cnn4-c4ccc(F)cc4)C[C@]3(C(=O)c3cc(C(F)(F)F)ccn3)C2)n1`
// result ≤ 100 nM

###

Kindly supply the reported IC50 values for the records listed here.
Biological target: GR (Homo sapiens, UniProt P04150)
Construct: expressed in transfected cells; host or cells: CHO-K1
Test: In Vitro GR Luciferase Reporter Assay (antagonist mode, CHO-K1-GR-MMTV-Luc reporter cells)
Format: cell-based
Conditions: antagonist assay with 10 nM Dexamethasone, 18-24 hours

// query State the recorded IC50 for this entry: O=C(c1ccccn1)[C@]12Cc3cnn(-c4ccc(F)cc4)c3C=C1CC[C@H](S(=O)(=O)c1cccc(Cl)c1)C2 [Example 37]
// result ≤ 100 nM

// query Note, next up: O=C(c1ccccn1)[C@]12Cc3cnn(-c4ccc(F)cc4)c3C=C1CC[C@@H](S(=O)(=O)c1ccc(C(F)(F)F)cc1)C2 [Example 11]
// result ≤ 100 nM

// query Note, next up: O=C(c1ccc(F)cn1)[C@]12Cc3cnn(-c4ccc(F)cc4)c3C=C1CC[C@H](S(=O)(=O)c1ccccn1)C2 [Example 68]
// result ≤ 100 nM
